System: Noggin (protein binding on small-molecule microarray)
Assay: Noggin binders on small-molecule microarray, primary screen, biochemical, 635/667 nm fluorescence (AID 1095);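 note: score merges 667 nm feature fluorescence with signal to noise over triplicate slides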
Conditions: 635 nm fluorescence, higher = more signal
Parameter threshold = 0.5. Response is 1.0 when composite z-score meets or exceeds it, else 0.0.

Use the examples below as a reference point.
CCOC(=O)C1=C[C@@H](C(C)(C)C)N(S(=O)(=O)c2ccc(C)cc2)[C@H]1c1ccccc1Cl :: 1.0
COCCOC(=O)N1C(=O)[C@@]2(c3cc(C#CC4=CCCCC4)ccc31)[C@H](C(=O)N1CCN(c3ncccn3)CC1)[C@H]1C(=O)O[C@H](c3ccccc3)[C@H](c3ccccc3)N1[C@@H]2c1ccccc1OCCO :: 1.0
CN(C)CCCNC(=O)[C@@H]1c2ccccc2C(=O)N(C2Cc3ccccc3C2)[C@H]1c1ccc(CO)cc1 :: 0.0
CCOC(=O)C1=CC[C@@H](c2ccccc2)N(S(=O)(=O)c2ccc(C)cc2)[C@H]1C#N :: 0.0

// inclusive: composite z-score at least 0.5? input: COC(=O)C1=CC(CCCO)=CC(c2ccc(CN3CCCC3)cc2)N(Cc2sc3ccccc3c2Cl)C=C1C(=O)OC (configuration not stated)
1.0

// inclusive: composite z-score at least 0.5? input: `CCc1cccc(NC(=O)O[C@H]2[C@H](OC(=O)Nc3ccc4c(c3)OCO4)[C@H](OC(=O)Nc3ccc4c(c3)OCO4)[C@@H](OC)O[C@@H]2CO)c1`
1.0

---

Assay: CREB reporter modulators under forskolin, primary screen, cell-based, PC12, CRE-LacZ reporter, forskolin-stimulated (AID 1146);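 note: PC12 cells with 6xCRE LacZ reporter stimulated by forskolin 10 µM; beta-galactosidase reporter signal reflecting CREB driven transcription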
Settings: luminescence, 4.5 h, higher = more signal, called active from +8 up or from −8 down
The source made the active and inactive calls.
metric name: z-score

[N-]=[N+]=NCc1ccccc1C[C@]1(C(=O)NCc2ccccc2)N=C(c2ccc(OCCCO)cc2)O[C@H]1c1ccccc1CN=[N+]=[N-] :: -1.73 (inactive)

Return reported z-score; argument: `O=C1O[C@@H](c2ccccc2)[C@@H](c2ccccc2)N2[C@@H](c3ccc(O)cc3)[C@]3(C(=O)Nc4ccc(C#CC5=CCCCC5)cc43)[C@@H](C(=O)N3CCCCCCC3)[C@H]12`
-0.782 (inactive)

---

Target: E3 ubiquitin-protein ligase XIAP (Homo sapiens)
Test: XIAP binders, primary screen, biophysical, small-molecule microarray, fluorescence 635 nm (AID 1181);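 note: score merges 667 nm emission and signal to noise over triplicate slides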
Conditions: small-molecule microarray binding, higher = more signal
Examples of compounds with documented composite z-score follow.
Please give only the number in your answer, with no unit.

These solved cases illustrate the format of a correct answer.
CC(C)CNC(=O)[C@@H]1c2ccccc2C(=O)N(C2Cc3ccccc3C2)[C@H]1c1ccc(CO)cc1 :: -0.109
CC(=O)n1cc(C(O)C2C=CC3C(=O)N(c4ccccc4)C(=O)C3N2Nc2ccccc2F)c2ccccc21 (configuration not stated) :: 0.439
COc1ccc([Si](C)(C)[C@@H]2[C@@H](CCO)O[C@]3(C(=O)N(Cc4ccccc4)c4ccc(N5C(=O)c6ccccc6Oc6ccccc65)cc43)[C@H]2C)cc1 :: -0.157

Return reported composite z-score; argument: COc1cc(OC)c(C(O)C2C=CC3C(=O)N(c4ccccc4)C(=O)C3N2Nc2ccccc2F)cc1Br (configuration not stated)
0.0245

Return reported composite z-score; argument: `C=C(CCCC)C(=O)CC[C@H](OC(=O)c1cccnc1)c1ccc(CO)o1`
0.0343

Return reported composite z-score; argument: `CCc1cccc(NC(=O)O[C@H]2[C@H](OC(=O)Nc3ccc4c(c3)OCO4)[C@H](OC(=O)Nc3ccc4c(c3)OCO4)[C@@H](OC)O[C@@H]2CO)c1`
-0.184

Return reported composite z-score; argument: `Cc1c(NC(=O)/C(C#N)=C/c2ccc(Cl)cc2)c(=O)n(-c2ccccc2)n1C`
-0.0871

Return reported composite z-score; argument: `O=C1c2ccccc2[C@@]2(Cc3ccccc3N(Cc3ccccc3)C2=O)[C@H](c2ccc(CO)cc2)N1Cc1ccccc1`
-0.0525

Return reported composite z-score; argument: `CC(C)[Si](C#CCCCC#N)(O[C@H](c1ccccc1)c1cn([C@H](C)c2ccccc2)nn1)C(C)C`
0.172

Return reported composite z-score; argument: `O=C(NCCO)C1=C[C@H](Oc2ccccc2I)[C@@H](O)[C@H](NCc2ccc(F)cc2)C1`
0.181

Return reported composite z-score; argument: `[N-]=[N+]=NCc1ccccc1C[C@]1(C(=O)N2CCOCC2)N=C(c2ccc(OCCCO)cc2)O[C@H]1c1ccccc1CN=[N+]=[N-]`
0.411

Return reported composite z-score; argument: C[C@H]1NC(=O)C([C@@H](C)OCc2ccccc2)NC(=O)[C@@]23C(=O)N[C@@H](Cc4ccccc4)C2[C@H](C)[C@@]2(C)O[C@H]2C3/C=C/C/C=C\CNC1=O (some centres not stated)
-0.381
